molecular target: T1, 2α PASB (HIF-2α PASB domain, 240-350) (UniProt Q99814 240-350, labelled with NT-647-NHS dye in MST; 15N (and 13C 15N) labelled in NMR); assay: MST, peptide titrated into labelled PAS-B domain of HIF-2α
T1 construct: range 240-350; also called PAS B domain of HIF-2α; not shown: His6 tag of vector pET28, then Met
T1 sequence (Q99814 240-350): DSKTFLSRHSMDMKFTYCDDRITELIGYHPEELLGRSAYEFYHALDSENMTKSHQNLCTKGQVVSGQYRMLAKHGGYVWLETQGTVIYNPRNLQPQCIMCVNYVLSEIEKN
Non-standard residues stand in square brackets, D forms with d. Phe(4-Cl) = N[C@@H](Cc1ccc(Cl)cc1)C(=O)O; Phe(4-Me) = Cc1ccc(C[C@H](N)C(=O)O)cc1; Cha = N[C@@H](CC1CCCCC1)C(=O)O
outcome.measure: pKd
pKd field: float, defined as -log10 of concentration (mol/L).

Use these answered entries as a reference point.
cyclo(CRLLI[Cha]) (also called CRLLIX where X = Cha) [CRLLI(Cha)]	5.24
cyclo(CRLLI[Phe(4-Cl)]) (also called CRLLIX where X = 4-Cl-F) [CRLLI(4-Cl-F)]	5.38

Then there is this binder:
Prompt: For the binder cyclo(CRLLI[Phe(4-Me)]) (also called CRLLIX where X = 4-Me-F) [CRLLI(4-Me-F)] , what pKd is on record?
Completion: 5.27
